Reported self-splicing fitness (ln) values follow for various sequences
- test_description: self-splicing fitness, log relative to wild type (ln ratio); higher = more splicing; Tetrahymena group I intron in knt gene, E. coli kanamycin selection, DiMSum; sequences stand for … in CUCUCU…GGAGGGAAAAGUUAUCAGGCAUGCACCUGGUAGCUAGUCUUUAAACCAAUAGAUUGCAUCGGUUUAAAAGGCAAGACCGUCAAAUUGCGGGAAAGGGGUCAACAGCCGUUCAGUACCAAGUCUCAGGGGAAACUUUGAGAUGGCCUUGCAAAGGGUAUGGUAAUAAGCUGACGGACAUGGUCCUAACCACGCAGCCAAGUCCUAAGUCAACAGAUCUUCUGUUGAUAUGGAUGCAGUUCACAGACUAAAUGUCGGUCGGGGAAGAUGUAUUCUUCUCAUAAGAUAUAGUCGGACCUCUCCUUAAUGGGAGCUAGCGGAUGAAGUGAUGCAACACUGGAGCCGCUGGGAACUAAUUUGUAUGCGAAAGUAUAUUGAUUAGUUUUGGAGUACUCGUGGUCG;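 note: selection with 25 µg/mL kanamycin versus none on LB agar overnight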
- experimental_conditions: 30 °C
endpoint_label: self-splicing fitness (ln)

          residue_string  assay_value
 0  GCUAAGCAAUAUUACGUCGU        -1.39
 1  CUCGAGCAAUAUUACGCCUG        -3.03
 2  CGAAAGCAAUAUUACGCCGG       -0.615
 3  UCAUAGCAAUAUUACGUCAG        -2.96
 4  GAUCAGCAAUAUUACGUUAA        -1.23
 5  AGCUAGCAAUAUUACGAUGC        -2.47
 6  CGUUAGCAAUAUUACGCAGA        -3.21
 7  UGACAGCAAUAUUACGCGAA        -1.32
 8  CACCAGCAAUAUUACGUCUC        -2.89
 9  UGAUAGCAAUAUUACGGCUU         -1.2
10  UGCCAGCAAUAUUACGUAGA        -1.45
11  AGUUAGCAAUAUUACGUAUC        -3.63
12  ACCCAGCAAUAUUACGAAUG        -3.41
13  AGCCAGCAAUAUUACGCCCA        -1.93
14  CCCCAGCAAUAUUACGCGGU        -3.91
15  CUGAAGCAAUAUUACGCCGC        -3.17
16  ACCUAGCAAUAUUACGAUUA        -2.05
17  CAUCAGCAAUAUUACGGGCC        -3.02
18  AAAUAGCAAUAUUACGGUAC        -3.61
19  CAGCAGCAAUAUUACGUCAA        -2.85
20  AACAAGCAAUAUUACGUUUU        -3.22
21  CCCGAGCAAUAUUACGCUCA        -2.87
22  CAUGAGCAAUAUUACGCGCU        -3.58
23  ACAAAGCAAUAUUACGACUA       -0.772
24  GUCAAGCAAUAUUACGGUCA        -1.24
25  GCUUAGCAAUAUUACGCAAU       -0.651
26  GCUAAGCAAUAUUACGGGAG        -3.12
27  UCUUAGCAAUAUUACGAACG       -0.815
28  GGCAAGCAAUAUUACGUCGG        -3.42
29  CCAAAGCAAUAUUACGCCUA        -4.18
30  ACUAAGCAAUAUUACGACGA       0.0648
31  CUACAGCAAUAUUACGUAGG        -1.39
32  GGCCAGCAAUAUUACGCUCG         -2.5
33  UCUAAGCAAUAUUACGCAUC        -2.99
34  CUAAAGCAAUAUUACGGUGU        -4.65
35  AUAGAGCAAUAUUACGUCCC        -2.36
36  UGCAAGCAAUAUUACGAGGG        -3.56
37  UUACAGCAAUAUUACGCUGC         -2.9
38  UAUAAGCAAUAUUACGCCCU        -1.15
39  AGAGAGCAAUAUUACGUAGC        -4.09
40  GCUCAGCAAUAUUACGCUUU       -0.857
41  GCCAAGCAAUAUUACGACUG        -4.32
42  GAAAAGCAAUAUUACGUGAC        -4.06
43  CUAGAGCAAUAUUACGCAAA        -2.62
44  CGUAAGCAAUAUUACGUCUU         -3.7
45  UAACAGCAAUAUUACGCCGA        -1.95
46  AACUAGCAAUAUUACGAUUU      -0.0161
47  AUAAAGCAAUAUUACGGUUU       -0.835
48  CUUCAGCAAUAUUACGUGUC        -3.03
49  AAAGAGCAAUAUUACGCCGU        -3.07
50  CUUCAGCAAUAUUACGUUGG        -3.67
51  CCGGAGCAAUAUUACGGAGU        -3.65
52  GGUUAGCAAUAUUACGUGGU        -2.69
53  UUCAAGCAAUAUUACGGUCC        -1.46
54  GAUAAGCAAUAUUACGUGCU        -2.32
55  CCAGAGCAAUAUUACGUUAA        -4.07
56  UGCAAGCAAUAUUACGUCCC        -1.37
57  UUCGAGCAAUAUUACGGGAA        -1.74
58  AGCGAGCAAUAUUACGGCAC        -1.57
59  GGACAGCAAUAUUACGGGUC        -3.54
60  UGAUAGCAAUAUUACGGGAG        -3.64
61  UAGUAGCAAUAUUACGAUGA        -1.59
62  UUAUAGCAAUAUUACGACCU        -3.38
63  UCGGAGCAAUAUUACGCUAG        -1.87
64  UCUCAGCAAUAUUACGUCAG        -3.54
65  UCUAAGCAAUAUUACGUAAC        -4.19
66  UCGAAGCAAUAUUACGGCCA        -1.64
